Test system: HLA-A2 on T2 cells pulsed with EARS2: 306-314 peptide (human)
Assay notes: flow cytometry, 10 ug/ml, pulsed T2 cells
Each entry below lists one item and its recorded ratio of MFI, pulsed to unpulsed value.
Give the value in ratio but do not write ratio after it.

- mAb28105P (antibody, human IgG4 S228P, kappa, V domains shown) VH: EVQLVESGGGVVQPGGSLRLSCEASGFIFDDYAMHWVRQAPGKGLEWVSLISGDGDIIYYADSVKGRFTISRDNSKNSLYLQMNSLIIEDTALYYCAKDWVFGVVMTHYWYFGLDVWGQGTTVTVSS VL: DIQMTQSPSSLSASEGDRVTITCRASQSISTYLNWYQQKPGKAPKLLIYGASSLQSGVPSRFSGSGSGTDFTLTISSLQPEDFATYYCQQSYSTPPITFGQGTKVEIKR: 0.6
- mAb28042P (antibody, human IgG4 S228P, kappa, V domains shown) VH: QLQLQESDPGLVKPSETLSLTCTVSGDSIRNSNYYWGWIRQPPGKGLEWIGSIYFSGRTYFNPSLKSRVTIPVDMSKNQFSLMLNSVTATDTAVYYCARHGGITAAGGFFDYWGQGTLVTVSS VL: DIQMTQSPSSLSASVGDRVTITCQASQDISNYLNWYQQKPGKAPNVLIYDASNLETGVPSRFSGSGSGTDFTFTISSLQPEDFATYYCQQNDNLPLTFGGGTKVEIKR: 0.6

Now examine the next entry.
query: Provide measured ratio of MFI, pulsed to unpulsed value, entry: mAb24958N (antibody, human IgG4 S228P, kappa, V domains shown) VH: QVQLQESGPGLVKPSQTLSLTCTVSGGSIISDGYYWSWIRQHPGKGLEWIGYVDYSGNTYYNPSLKSRIIMSVDTSKNQFSLKLTSVTAADTAVYFCVREGPLRDAFEIWGQGTMVTVSS VL: DIQMTQSPSSLSASVGDRVTITCRTSQSISRYLNWYQQKPGKAPKLLIFAASSLQSGVPSRFSGSGSGADFTLTISSLQPEDFATYYCQQSYSTPPITFGQGTRLEIKR
result: 0.6
